Reference source for all entries: ChEMBL document CHEMBL5058577

# Tested on: Fibroblast
# RUN_DESCRIPTION: Multiplex assay against human fibroblast
# Assay type: toxicity, cell-based
# CONDITION_LABEL: 48 h, 10 µM, compound concentration 10 uM, replicate 2
Kindly supply the reported Population Tubulin-Different-Phenotype (%) values for the records listed here.
Give bare numbers, in %.

compound=COc1cc2nc(N3CCN(C(=O)COc4c(OC)cccc4C(C)C)CC3)nc(N)c2cc1OC.Cl.Cl readout_unit=% observed_value=43
compound=CC(C)(O)C(=O)N1CCN(c2ccc(C(F)(F)F)c(C3=C(c4c[nH]c5ccccc45)C(=O)NC3=O)c2)CC1 readout_unit=% observed_value=83
compound=N[C@](CC1c2ccccc2Oc2ccccc21)(C(=O)O)[C@H]1C[C@@H]1C(=O)O readout_unit=% observed_value=28

Fill in Population Tubulin-Different-Phenotype (%) for each of the 4 compounds listed.
1. COC(c1ccccc1)(c1ccccc1)[C@H](Oc1nc(C)cc(C)n1)C(=O)O
2. S=C(NCCCc1c[nH]cn1)NCCCN(Cc1ccc(Cl)c(Cl)c1)c1ccc(Br)cn1
3. CN1CCC(C(=O)c2cccc(NC(=O)c3c(F)cc(F)cc3F)n2)CC1
4. Cl.Cl.OCCOCCN1CCN(C(c2ccccc2)c2ccc(Cl)cc2)CC1 (configuration not stated) [HYDROXYZINE HYDROCHLORIDE]

Reply |
62
86
69
57
